- Tested target: UniProt Q9UBN7
- Sequence (Q9UBN7 1-1215): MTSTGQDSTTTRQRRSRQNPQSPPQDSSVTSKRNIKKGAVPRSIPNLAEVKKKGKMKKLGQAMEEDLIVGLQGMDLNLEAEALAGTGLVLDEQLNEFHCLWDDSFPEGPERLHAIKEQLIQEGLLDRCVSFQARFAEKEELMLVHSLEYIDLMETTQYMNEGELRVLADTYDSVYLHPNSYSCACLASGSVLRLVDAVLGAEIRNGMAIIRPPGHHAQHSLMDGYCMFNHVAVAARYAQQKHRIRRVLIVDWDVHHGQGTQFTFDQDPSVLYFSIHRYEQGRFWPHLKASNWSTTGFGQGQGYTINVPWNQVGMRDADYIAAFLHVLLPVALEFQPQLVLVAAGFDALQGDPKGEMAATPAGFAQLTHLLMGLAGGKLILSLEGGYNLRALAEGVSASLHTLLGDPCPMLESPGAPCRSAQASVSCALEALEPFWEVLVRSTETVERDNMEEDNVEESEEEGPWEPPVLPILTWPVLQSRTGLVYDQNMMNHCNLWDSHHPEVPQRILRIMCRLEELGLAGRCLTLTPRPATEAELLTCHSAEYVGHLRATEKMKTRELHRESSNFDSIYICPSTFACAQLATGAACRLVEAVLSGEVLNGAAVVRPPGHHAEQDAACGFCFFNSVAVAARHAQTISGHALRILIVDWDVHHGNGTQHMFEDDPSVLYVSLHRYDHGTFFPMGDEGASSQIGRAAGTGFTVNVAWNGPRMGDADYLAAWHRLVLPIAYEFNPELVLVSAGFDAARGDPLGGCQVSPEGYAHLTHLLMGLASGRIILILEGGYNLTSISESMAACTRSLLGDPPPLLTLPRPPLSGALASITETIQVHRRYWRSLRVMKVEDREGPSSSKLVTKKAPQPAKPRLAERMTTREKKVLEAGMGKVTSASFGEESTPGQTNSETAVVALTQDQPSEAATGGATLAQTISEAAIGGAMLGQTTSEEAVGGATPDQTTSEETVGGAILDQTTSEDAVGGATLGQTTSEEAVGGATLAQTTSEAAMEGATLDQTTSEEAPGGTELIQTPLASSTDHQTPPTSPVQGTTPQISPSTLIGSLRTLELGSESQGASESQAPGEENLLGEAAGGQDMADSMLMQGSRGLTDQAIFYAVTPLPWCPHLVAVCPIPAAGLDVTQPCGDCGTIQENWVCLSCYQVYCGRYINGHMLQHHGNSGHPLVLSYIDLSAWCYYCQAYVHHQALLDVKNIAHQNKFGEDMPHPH
- Protocol summary: Human HDAC enzyme inhibitor Fluor-de-Lys assay, HDAC6
- Assay type: biochemical
The entries below come with measured IC50 values attached.
Lab book: enter the figure in µM, no units written.

Molecule: CCC(=O)CCCCC[C@H](NC(=O)[C@H]1CC12CCN(CC)CC2)c1ncc(-c2ccc3c(=O)n(C(C)C)ccc3c2)[nH]1 [Compound 126]
IC50 [µM]: 18.1

Input line: Supply measured IC50 of CCC(=O)CCCCC[C@H](NC(=O)[C@H]1CC12CCN(C)CC2)c1ncc(-c2ccc3c(c2)C2CCC3C2)[nH]1 (stereo partly shown) [Compound 74] in your reply.
Output line: 7.85

###

- Tested target: Recombinant human HDAC8 (Homo sapiens)
- Construct: purchased Enzo Life Sciences BML-SE145-0100
- Protocol summary: Human HDAC enzyme inhibitor Fluor-de-Lys assay, HDAC8
- Type: biochemical
Endpoint: pIC50
The read-out pIC50 is expressed as -log10 of concentration in moles per litre.

Worked cases, answers included:
Structure smiles string: CCC(=O)CCCCC[C@H](NC(=O)[C@H]1CC12CCN(C)CC2)c1ncc(-c2ccc3cnc(OC)cc3c2)[nH]1
pIC50: 5.66
//
Structure smiles string: CCC(=O)CCCCC[C@H](NC(=O)C1=NOC2(CCN(C)CC2)C1)c1ncc(-c2ccc3nc(C4CC4)ccc3c2)o1
pIC50: 4.74
//
Structure smiles string: CCN1CCC2(CC1)C[C@@H]2C(=O)N[C@@H](CCCCCC(=O)CC1CC1)c1ncc(-c2cccnc2OC)[nH]1
pIC50: 5.06

Note: attention shifts to another entry.
Input line: Supply measured pIC50 of CCC(=O)CCCCC[C@H](NC(=O)[C@H]1CC12CCN(C)CC2)c1ncc(-c2ccc(-c3ccc(C4CC4)nc3)cc2)o1 in your reply.
Output line: 4.88

###

- Tested target: Recombinant human HDAC8 (Homo sapiens, UniProt Q9BY41)
- Construct: purchased Enzo Life Sciences BML-SE145-0100
- Sequence (Q9BY41 whole entry): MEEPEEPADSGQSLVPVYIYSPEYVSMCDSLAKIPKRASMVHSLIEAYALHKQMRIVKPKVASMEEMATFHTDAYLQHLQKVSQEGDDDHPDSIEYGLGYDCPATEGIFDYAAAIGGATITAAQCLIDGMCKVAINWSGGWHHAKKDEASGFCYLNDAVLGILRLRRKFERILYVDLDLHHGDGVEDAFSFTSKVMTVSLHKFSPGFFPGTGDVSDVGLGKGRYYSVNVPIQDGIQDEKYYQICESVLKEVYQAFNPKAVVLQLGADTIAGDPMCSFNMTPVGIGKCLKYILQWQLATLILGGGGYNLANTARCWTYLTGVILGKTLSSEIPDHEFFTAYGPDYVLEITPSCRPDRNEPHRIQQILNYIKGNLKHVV
- Protocol summary: Human HDAC enzyme inhibitor Fluor-de-Lys assay, HDAC8
- Format: biochemical
- Recorded conditions: recombinant human HDAC8, Fluor-de-Lys assay
The entries below come with measured IC50 values attached.
Lab book: enter the figure in µM, no units written.

Worked cases, answers included:
Compound: CCC(=O)CCCCC[C@H](NC(=O)[C@H]1CC12CCN(Cc1cccnc1)CC2)c1ncc(-c2cc3ccccc3nc2OC)[nH]1
Readout units: µM
IC50: 4.92
--
Compound: CCC(=O)CCCCC[C@H](NC(=O)[C@H]1CC12CCN(CC(F)(F)F)CC2)c1ncc(-c2cc3ccccc3nc2OC)[nH]1
Readout units: µM
IC50: 6.09
--
Compound: CCC(=O)CCCCC[C@H](NC(=O)[C@H]1CC[C@]2(CC1)OC(=O)c1cccnc12)c1nnc(-c2cc3ccccc3nc2OC)o1
Readout units: µM
IC50: 21.7

Input line: Report IC50 under test system Recombinant human HDAC8 (Homo sapiens, UniProt Q9BY41) for CCC(=O)CCCCC[C@H](NC(=O)C1CC2(C1)CN(C)C2)c1ncc(-c2cc3ccccc3nc2OC)[nH]1 .
Output line: 2.66

Input line: Report IC50 under test system Recombinant human HDAC8 (Homo sapiens, UniProt Q9BY41) for CCC(=O)CCCCC[C@H](NC(=O)[C@H]1CC12CCN(C)CC2)c1ncc(-c2cc3ccc(N(C)C)nc3cc2OC)o1 .
Output line: 0.3

Input line: Report IC50 under test system Recombinant human HDAC8 (Homo sapiens, UniProt Q9BY41) for CCC(=O)CCCCC[C@H](NC(=O)C1NC(=O)CC12CN(C)C2)c1nnc(-c2cc3ccccc3nc2OC)o1 (stereo partly drawn) .
Output line: 24

###

- Tested target: HDAC6 (Homo sapiens, UniProt Q9UBN7)
- Sequence (Q9UBN7 1-1215): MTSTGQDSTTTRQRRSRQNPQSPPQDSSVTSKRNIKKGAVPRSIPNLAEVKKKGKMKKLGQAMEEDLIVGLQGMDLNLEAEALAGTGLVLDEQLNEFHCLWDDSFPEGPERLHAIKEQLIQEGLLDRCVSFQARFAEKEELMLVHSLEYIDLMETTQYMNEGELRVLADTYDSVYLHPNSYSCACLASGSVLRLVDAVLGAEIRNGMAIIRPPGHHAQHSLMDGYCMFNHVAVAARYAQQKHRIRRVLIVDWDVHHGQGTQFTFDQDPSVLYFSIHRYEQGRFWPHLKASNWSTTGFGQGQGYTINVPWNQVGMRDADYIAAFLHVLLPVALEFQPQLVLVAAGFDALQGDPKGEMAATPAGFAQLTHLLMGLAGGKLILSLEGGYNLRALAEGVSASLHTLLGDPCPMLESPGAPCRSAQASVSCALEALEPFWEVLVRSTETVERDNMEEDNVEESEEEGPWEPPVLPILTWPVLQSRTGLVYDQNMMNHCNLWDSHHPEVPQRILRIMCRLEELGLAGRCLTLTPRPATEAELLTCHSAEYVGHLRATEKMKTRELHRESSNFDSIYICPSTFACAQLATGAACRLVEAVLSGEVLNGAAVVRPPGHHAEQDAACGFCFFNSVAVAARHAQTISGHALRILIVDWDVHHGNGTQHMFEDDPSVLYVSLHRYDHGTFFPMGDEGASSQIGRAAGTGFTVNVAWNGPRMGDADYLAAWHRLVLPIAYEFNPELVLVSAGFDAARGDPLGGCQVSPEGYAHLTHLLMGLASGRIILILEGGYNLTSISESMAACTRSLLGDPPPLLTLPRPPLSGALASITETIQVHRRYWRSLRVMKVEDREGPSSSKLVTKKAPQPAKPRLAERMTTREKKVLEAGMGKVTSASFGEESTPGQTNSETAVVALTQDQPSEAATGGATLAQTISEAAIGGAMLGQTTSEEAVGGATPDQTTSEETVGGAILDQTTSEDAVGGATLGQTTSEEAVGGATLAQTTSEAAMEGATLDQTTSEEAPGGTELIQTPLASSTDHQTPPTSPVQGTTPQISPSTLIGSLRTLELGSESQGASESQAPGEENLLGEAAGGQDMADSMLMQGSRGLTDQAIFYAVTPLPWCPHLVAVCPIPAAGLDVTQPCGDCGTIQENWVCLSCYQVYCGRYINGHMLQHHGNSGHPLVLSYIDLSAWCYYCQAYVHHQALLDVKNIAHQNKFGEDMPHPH
- Protocol summary: Human HDAC enzyme inhibitor Fluor-de-Lys assay, HDAC6
- Type: biochemical
# IC50 binned as bottom: < 3 µM; middle: ≥ 3 µM and < 4 µM; top: ≥ 4 µM

Record excerpt, results attached:
Molecule: CCC(=O)CCCCC[C@H](NC(=O)C1CC2(C1)CN(C)C2)c1ncc(-c2ccc3nn(C)cc3c2)[nH]1 [Compound 147]
Label class: middle
//
Molecule: CCC(=O)CCCCC[C@H](NC(=O)[C@H]1CC12CCN(C)CC2)c1ncc(-c2ccc3nc(C4CC4)ccc3c2)o1 [Compound 121]
Label class: top

Input line: Lab note: sort CCC(=O)CCCCC[C@H](NC(=O)C1=NOC2(CCN(CC)CC2)C1)c1ncc(-c2cc3ccc(C)nc3cc2OC)o1 [Compound 204] into the matching IC50 band.
Output line: bottom

Input line: Lab note: sort CCC(=O)CCCCC[C@H](NC(=O)[C@H]1CC12CCN(C)CC2)c1ncc(-c2coc3ccccc3c2=O)[nH]1 [Compound 86] into the matching IC50 band.
Output line: middle
